# Experimental System: T1, Extracellular domain of cyno PD1 (cPD1-ECD) (Macaca fascicularis (cynomolgus))
# T1 construct: Expressed with a hexahistidine tag or as Fc fusion; also called cynoPD1-ECD; cynoPD-1-ECD
# T1 chain: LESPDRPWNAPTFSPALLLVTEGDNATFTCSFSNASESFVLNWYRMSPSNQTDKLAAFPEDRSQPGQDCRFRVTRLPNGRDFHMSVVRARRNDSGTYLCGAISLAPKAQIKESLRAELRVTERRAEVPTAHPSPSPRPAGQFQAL
# Assay Name: SPR ProteOn, cynoPD1-ECD; RANGE low replicate
Quantity Measured: Kd (nM)
Supply the numeric figure in nM, leaving out any unit text.

[[record]]
binder = "PD1B177 (antibody, V domains shown, Tested as IgG2sigma; also called PD1H164/PH9L3) VH: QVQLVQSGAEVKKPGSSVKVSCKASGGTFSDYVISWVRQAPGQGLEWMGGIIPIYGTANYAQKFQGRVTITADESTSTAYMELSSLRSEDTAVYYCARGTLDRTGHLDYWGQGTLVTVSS VL: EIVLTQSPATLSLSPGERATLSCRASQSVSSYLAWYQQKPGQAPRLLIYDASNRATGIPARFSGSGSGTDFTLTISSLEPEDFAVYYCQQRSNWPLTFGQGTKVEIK"
quantity_measured = "Kd"
measured_value = 6.1

[[record]]
binder = "PD1B183 (antibody, human IgG2, kappa, V domains shown, IgG2sigma/kappa; VH 43, VL 54; also called PD1H3/PD1L109) VH: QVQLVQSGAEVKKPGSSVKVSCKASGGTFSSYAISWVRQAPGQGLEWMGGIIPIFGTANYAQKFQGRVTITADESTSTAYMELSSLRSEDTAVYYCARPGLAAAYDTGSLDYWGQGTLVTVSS VL: EIVLTQSPATLSLSPGERATLSCRASQSVSSYLAWYQQKPGQAPRLLIKDASNRATGIPARFSGSGSGTDFTLTISSLEPEDFAVYYCQQRGYWPLTFGQGTKVEIKR"
quantity_measured = "Kd"
measured_value = 23.9


Kindly consider the entry below.
Item under review: PD1B162 (antibody, human IgG2, kappa, V domains shown, IgG2sigma/kappa; VH 42, VL 52; also called PD1H131/PD1L67) VH: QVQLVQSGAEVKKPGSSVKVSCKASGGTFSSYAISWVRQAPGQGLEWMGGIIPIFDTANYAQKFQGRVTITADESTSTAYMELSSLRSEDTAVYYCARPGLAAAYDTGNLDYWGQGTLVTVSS VL: EIVLTQSPATLSLSPGERATLSCRASQSVDSYLAWYQQKPGQAPRLLIYDASNRATGIPARFSGSGSGTDFTLTISSLEPEDFAVYYCQQREYWPLTFGQGTKVEIKR . Reported Kd? 2.5
